# MEASURED TARGET: protein tyrosine phosphatase 1β (PTP1β) (Homo sapiens, UniProt P18031)
# Sequence (P18031 1-322 limits assumed): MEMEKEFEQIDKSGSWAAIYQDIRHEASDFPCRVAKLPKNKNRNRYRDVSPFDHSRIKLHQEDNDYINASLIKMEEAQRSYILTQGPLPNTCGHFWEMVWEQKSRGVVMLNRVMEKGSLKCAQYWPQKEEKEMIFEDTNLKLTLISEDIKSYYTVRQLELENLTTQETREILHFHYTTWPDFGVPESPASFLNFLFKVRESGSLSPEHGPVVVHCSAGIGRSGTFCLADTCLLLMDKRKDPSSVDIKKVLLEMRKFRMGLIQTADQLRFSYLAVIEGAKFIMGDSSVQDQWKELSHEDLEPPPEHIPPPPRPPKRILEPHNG
# ASSAY OVERVIEW: PTP1β inhibitory activity assay (colorimetric kit, IR5 phosphopeptide substrate)
# Assay type: biochemical
# ASSAY SETUP: 10 μg/mL; - is no activity
PROPERTY LABEL: inhibition at 10 µg/mL (%)

1. O=C(/C=C/c1ccc(O)c(O)c1)O[C@@H]1C[C@](OC(=O)/C=C/c2ccc(O)c(O)c2)(C(=O)O)C[C@@H](OC(=O)/C=C/c2ccc(O)c(O)c2)[C@H]1O :: 39.2
2. COC(=O)[C@]1(O)C[C@@H](OC(=O)/C=C/c2ccc(O)c(O)c2)[C@@H](O)[C@H](OC(=O)/C=C/c2ccc(O)c(O)c2)C1 :: 82.5
3. O=C(/C=C/c1ccc(O)c(O)c1)O[C@@H]1C[C@](O)(C(=O)O)C[C@@H](OC(=O)/C=C/c2ccc(O)c(O)c2)[C@H]1O :: 18.4
4. O=C(/C=C/c1ccc(O)c(O)c1)O[C@@H]1C[C@@](OC(=O)/C=C/c2ccc(O)c(O)c2)(C(=O)O)C[C@@H](O)[C@@H]1O :: 22.3
5. O=C(O)C1OC(Oc2c(-c3ccc(O)c(O)c3)oc3cc(O)cc(O)c3c2=O)C(O)C(O)C1O (centres unmarked) [compound 9, quercetin-3-O-glucuronide] :: 10.7

----------
# MEASURED TARGET: UniProtKB P18031
# Sequence (P18031 1-322 limits assumed): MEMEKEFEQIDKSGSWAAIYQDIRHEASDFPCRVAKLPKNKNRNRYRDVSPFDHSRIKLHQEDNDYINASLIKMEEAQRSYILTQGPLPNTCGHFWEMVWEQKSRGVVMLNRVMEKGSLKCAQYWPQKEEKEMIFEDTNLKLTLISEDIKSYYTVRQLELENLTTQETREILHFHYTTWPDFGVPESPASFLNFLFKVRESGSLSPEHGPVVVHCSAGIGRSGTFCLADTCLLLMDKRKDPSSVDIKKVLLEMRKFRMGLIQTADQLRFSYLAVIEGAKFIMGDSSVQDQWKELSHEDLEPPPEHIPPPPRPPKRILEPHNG
# ASSAY OVERVIEW: PTP1β inhibitory activity assay (colorimetric kit, IR5 phosphopeptide substrate)
# Assay type: biochemical
# ASSAY SETUP: isolated compounds; - is no activity
PROPERTY LABEL: IC50

1. COc1c(O)cc2oc(-c3ccc(O)c(O)c3)c(OC3OC(C(=O)O)C(O)C(O)C3O)c(=O)c2c1O (stereo not shown) [compound 8, patuletin-3-glucuronide] :: > 19.7 µM
2. O=C(O)C1OC(Oc2c(-c3ccc(O)c(O)c3)oc3cc(O)cc(O)c3c2=O)C(O)C(O)C1O (stereo not shown) [compound 9, quercetin-3-O-glucuronide] :: > 20.9 µM
3. Nc1ccn([C@@H]2O[C@H](CO)[C@@H](O)[C@H]2O)c(=O)n1 :: > 41.1 µM
4. O=C(/C=C/c1ccc(O)c(O)c1)O[C@@H]1C[C@](OC(=O)/C=C/c2ccc(O)c(O)c2)(C(=O)O)C[C@@H](OC(=O)/C=C/c2ccc(O)c(O)c2)[C@H]1O :: > 14.7 µM
5. OC[C@H]1O[C@H](OC[C@H]2O[C@H](O[C@]3(CO)O[C@H](CO)[C@@H](O)[C@@H]3O)[C@H](O)[C@@H](O)[C@@H]2O)[C@H](O)[C@@H](O)[C@H]1O :: > 19.8 µM
6. O=C(/C=C/c1ccc(O)c(O)c1)O[C@@H]1C[C@](O)(C(=O)O)C[C@@H](OC(=O)/C=C/c2ccc(O)c(O)c2)[C@H]1O :: > 19.4 µM
7. O=C(O)c1ccc(O)c(O)c1 :: > 64.9 µM
8. O=C(/C=C/c1ccc(O)c(O)c1)O[C@@H]1C[C@](OC(=O)/C=C/c2ccc(O)c(O)c2)(C(=O)O)C[C@@H](O)[C@H]1O :: > 19.4 µM
9. O=C(CCO)c1ccc(O)cc1 :: > 60.2 µM
10. O=C(/C=C/c1ccc(O)c(O)c1)O[C@@H]1C[C@@](OC(=O)/C=C/c2ccc(O)c(O)c2)(C(=O)O)C[C@@H](O)[C@@H]1O :: > 19.4 µM
